TARGET: prolyl endopeptidase (Elizabethkingia meningoseptica, UniProt P27028)
Sequence (P27028 21-705): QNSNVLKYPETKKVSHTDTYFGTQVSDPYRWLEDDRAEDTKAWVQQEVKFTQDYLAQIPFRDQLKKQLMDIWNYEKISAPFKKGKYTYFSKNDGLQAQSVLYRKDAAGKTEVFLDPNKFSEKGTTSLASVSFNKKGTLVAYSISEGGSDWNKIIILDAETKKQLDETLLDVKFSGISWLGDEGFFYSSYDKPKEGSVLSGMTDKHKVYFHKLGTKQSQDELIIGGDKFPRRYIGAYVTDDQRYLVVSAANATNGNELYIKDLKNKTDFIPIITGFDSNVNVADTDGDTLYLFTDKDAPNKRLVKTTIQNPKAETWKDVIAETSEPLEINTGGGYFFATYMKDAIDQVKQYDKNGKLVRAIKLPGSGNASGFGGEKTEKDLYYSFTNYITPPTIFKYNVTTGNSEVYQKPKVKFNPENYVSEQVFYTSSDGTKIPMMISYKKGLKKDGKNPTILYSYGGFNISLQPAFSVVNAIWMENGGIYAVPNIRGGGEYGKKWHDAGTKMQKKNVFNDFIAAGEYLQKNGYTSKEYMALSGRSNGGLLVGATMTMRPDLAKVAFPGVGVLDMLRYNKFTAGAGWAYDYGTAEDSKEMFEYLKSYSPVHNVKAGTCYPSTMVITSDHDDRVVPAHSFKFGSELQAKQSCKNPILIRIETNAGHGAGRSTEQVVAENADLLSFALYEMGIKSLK
Type: biochemical
CONDITION_DETAILS: amount per test tube for 50% inhibition; pH 7.0, 35° C., 10 minutes
ASSAY_ENDPOINT: IC50 (μg/test tube)

1. O=C([C@@H]1CCCN1C(=O)CCCCOc1ccccc1/C=C/c1ccccc1)N1CCCC1 [compound 40]	0.002
2. O=C(c1ccccc1)c1ccc(OCCCC(=O)N2CCC[C@H]2C(=O)N2CCCC2)cc1 [compound 31]	0.004
3. CC(C)C[C@H](NC(=O)CCCOc1ccccc1/C=C/c1ccccc1)C(=O)N1CCCC1 [compound 9]	0.03
4. CCCCCCCC/C=C\CCCCCCCC(=O)N[C@@H](CCCC)C(=O)N1CCCC1 [compound 16]	0.07
5. CC(C)C[C@H](NC(=O)CCCc1ccccc1)C(=O)N1CCCC1 [Compound No. 2]	0.15

1: O=C([C@@H]1CCCN1C(=O)CCOc1ccccc1/C=C/c1ccccc1)N1CCCC1 [compound 39]
2: CCCCCCCCCc1ccc(OCCCC(=O)N2CCC[C@H]2C(=O)N2CCCC2)cc1 [compound 25]
Qu. # argmax over IC50 for candidates 1 and 2 Please respond with the label that marks your chosen entry.
Ans. 2

a: O=C([C@@H]1CCCN1C(=O)CCCOc1ccccc1OCc1ccccc1)N1CCCC1 [compound 30]
b: O=C(/C=C/c1ccccc1OCCCC(=O)N1CCC[C@H]1C(=O)N1CCCC1)c1ccccc1 [compound 41]
Qu. Which value of IC50 is smaller, the one for a or the one for b ? Please respond with the label that marks your chosen entry.
Ans. b
(b: 0.001 μg/test tube, a: 0.005 μg/test tube)

A: O=C([C@@H]1CCCN1C(=O)CCCOc1ccccc1/C=C/c1ccccc1)N1CCCC1 [Compound No. 35]
B: CCC(=O)c1ccccc1OCCCC(=O)N1CCC[C@H]1C(=O)N1CCCC1 [compound 24]
Qu. # argmax over IC50 for candidates A and B Please respond with the label that marks your chosen entry.
Ans. B

A: O=C(c1ccccc1)c1ccccc1OCCCC(=O)N1CCC[C@H]1C(=O)N1CCCC1 [compound 32]
B: O=C([C@@H]1CCCN1C(=O)COc1ccc(Cl)cc1)N1CCCC1 [compound 20]
Qu. Which value of IC50 is smaller, the one for A or the one for B ? Please respond with the label that marks your chosen entry.
Ans. A

---

TARGET: prolyl endopeptidase (Elizabethkingia meningoseptica, UniProt P27028)
Assay type: biochemical
CONDITION_DETAILS: amount per test tube for 50% inhibition; pH 7.0, 35° C., 10 minutes
ASSAY_ENDPOINT: IC50 (μg/test tube)

1) CC(C)[C@H](NC(=O)CCCOc1ccccc1/C=C/c1ccccc1)C(=O)N1CCCC1	0.02

P: O=C([C@@H]1CCCN1C(=O)CCCOc1ccccc1O)N1CCCC1
Q: CC(C)C[C@H](NC(=O)CCCOc1ccc(Cc2ccccc2)cc1)C(=O)N1CCCC1
R: O=C([C@@H]1CCCN1C(=O)CCCOc1ccc(/C=C/c2ccccc2)cc1)N1CCCC1
S: CCCC[C@H](NC(=O)CCCc1ccccc1)C(=O)N1CCCC1
Qu. Put these in order: smallest IC50 first, largest last. Answer by listing the labels in the order asked for.
Ans. R, P, Q, S

---

TARGET: prolyl endopeptidase (Elizabethkingia meningoseptica, UniProt P27028)
Type: biochemical
CONDITION_DETAILS: amount per test tube for 50% inhibition; pH 7.0, 35° C., 10 minutes
ASSAY_ENDPOINT: IC50 (μg/test tube)

1) O=C(/C=C/c1ccccc1)c1ccccc1OCCCC(=O)N1CCC[C@H]1C(=O)N1CCCC1 [compound 42]	0.0008
2) CCCCCCCC/C=C\CCCCCCCC(=O)N1CCC[C@H]1C(=O)N1CCCC1 [Compound No. 43, N-(N-oleoyl-L-prolyl)pyrrolidine]	0.02
3) C=CCc1ccccc1OCCCC(=O)N1CCC[C@H]1C(=O)N1CCCC1 [compound 26]	0.002

a: CCCCC/C=C\C/C=C\CCCCCCCC(=O)N1CCC[C@H]1C(=O)N1CCCC1 [compound 46]
b: O=C([C@@H]1CCCN1C(=O)CCCOc1cccc(Cc2ccccc2)c1)N1CCCC1 [compound 33]
c: O=C([C@@H]1CCCN1C(=O)CCCOc1ccccc1Cc1ccccc1)N1CCCC1 [compound 34]
d: CCC(=O)c1ccc(OCCCC(=O)N2CCC[C@H]2C(=O)N2CCCC2)cc1 [compound 23]
e: CC(C)[C@H](NC(=O)CCCOc1ccc(Cc2ccccc2)cc1)C(=O)N1CCCC1 [compound 13]
Qu. Put the items in sequence by IC50, from largest down. Answer by listing the labels in the order asked for.
Ans. e, a, d, c, b
